FYI, the data here is from patent US20210332036A1.

Assay: PK parameters, IP dosing (plasma and brain exposure)
Type: in vivo
Parameters: concentration or dose not given beside the values
Details: Mouse IP, brain; read-out: AUC(last) Brain
reported endpoint: AUC(0-t)

Some solved entries appear below for comparison.
Indicate the recorded AUC(0-t) value for this compound: Nc1ccc(-c2cncs2)cc1NC(=O)c1ccc(N2CCNCC2)cn1 [Compound 012]
300 to 400 ng·h/mL

Indicate the recorded AUC(0-t) value for this compound: Cc1ccc(-c2ccc(N)c(NC(=O)c3ccc(N4CCNCC4)cn3)c2)cc1 [Compound 001]
64700 to 64800 ng·h/mL

Others:
Indicate the recorded AUC(0-t) value for this compound: Nc1ccc(-c2cccs2)cc1NC(=O)c1ncc(N2CCNCC2)cn1 [Compound 007]
900 to 1000 ng·h/mL

Indicate the recorded AUC(0-t) value for this compound: COCCOc1ccc(C(=O)Nc2cc(-c3cccs3)ccc2N)nn1 [Compound 008]
1300 to 1400 ng·h/mL

Indicate the recorded AUC(0-t) value for this compound: Nc1ccc(-c2cccs2)cc1NC(=O)c1ccc(NC2CCN(C(=O)N3CCNCC3)CC2)cn1 [Compound 014]
200 to 300 ng·h/mL

* * *

Assay: PK parameters, IV dosing (plasma and brain exposure)
Assay type: in vivo
Design: concentration or dose not given beside the values
Settings: Mouse IV, plasma; read-out: AUC(last) Plasma
Reported AUC(0-t) is given for each of the following molecules.

Indicate the recorded AUC(0-t) value for this molecule: Cc1ccc(-c2ccc(N)c(NC(=O)c3ccc(N4CCNCC4)cn3)c2)cc1
1400 to 1500 ng·h/mL

Indicate the recorded AUC(0-t) value for this molecule: Nc1ccc(-c2cccs2)cc1NC(=O)c1ccc(OC[C@H](O)CO)cn1
1100 to 1200 ng·h/mL

Indicate the recorded AUC(0-t) value for this molecule: Nc1ccc(-c2ccccc2)cc1NC(=O)c1ncc(N2CCNCC2)cn1
300 to 400 ng·h/mL

Turning now to a further record.
Indicate the recorded AUC(0-t) value for this molecule: Nc1ccc(-c2cncs2)cc1NC(=O)c1ccc(N2CCNCC2)cn1
800 to 900 ng·h/mL

* * *

Assay: PK parameters, IV dosing (plasma and brain exposure)
Type: in vivo
Design: concentration or dose not given beside the values
Settings: Mouse IV, brain; read-out: AUC(last) Brain
Reported AUC(0-t) is given for each of the following molecules.

Some solved entries appear below for comparison.
Indicate the recorded AUC(0-t) value for this molecule: Nc1ccc(-c2cccs2)cc1NC(=O)c1ccc(OCCO)cn1
600 to 700 ng·h/mL

Indicate the recorded AUC(0-t) value for this molecule: Nc1ccc(-c2ccccc2)cc1NC(=O)c1ccc(N2CCNCC2)nn1
3000 to 4000 ng·h/mL

Indicate the recorded AUC(0-t) value for this molecule: COCCOc1ccc(C(=O)Nc2cc(-c3cccs3)ccc2N)nn1
200 to 300 ng·h/mL

Indicate the recorded AUC(0-t) value for this molecule: Nc1ccc(-c2cccs2)cc1NC(=O)c1cnc(N2CCNCC2)cn1
9000 to 10000 ng·h/mL

Indicate the recorded AUC(0-t) value for this molecule: COCCOc1ccc(C(=O)Nc2cc(-c3cccs3)ccc2N)nc1
500 to 600 ng·h/mL

Indicate the recorded AUC(0-t) value for this molecule: Nc1ccc(-c2ccoc2)cc1NC(=O)c1ncc(N2CCNCC2)cn1
100 to 200 ng·h/mL

Others:
Indicate the recorded AUC(0-t) value for this molecule: CNS(=O)(=O)Oc1ccc(-c2ccc(N)c(NC(=O)c3ccc(N4CCN(C)CC4)cn3)c2)cc1
100 to 200 ng·h/mL

Indicate the recorded AUC(0-t) value for this molecule: Nc1cc(F)c(-c2cccs2)cc1NC(=O)c1ccc(N2CCNCC2)cn1
9000 to 10000 ng·h/mL

Indicate the recorded AUC(0-t) value for this molecule: CC(=O)N1CCN(c2ccc(C(=O)Nc3cc(-c4cccs4)ccc3N)nc2)CC1
200 to 300 ng·h/mL

Indicate the recorded AUC(0-t) value for this molecule: Cc1ccc(-c2ccc(N)c(NC(=O)c3ccc(N4CCNCC4)cn3)c2)cc1
19000 to 20000 ng·h/mL

Indicate the recorded AUC(0-t) value for this molecule: Nc1ccc(-c2cccs2)cc1NC(=O)c1ccc(OC[C@H](O)CO)cn1
200 to 300 ng·h/mL

Indicate the recorded AUC(0-t) value for this molecule: Nc1ccc(-c2cncs2)cc1NC(=O)c1ccc(N2CCNCC2)cn1
400 to 500 ng·h/mL

* * *

Quick record of IC50 values for HDAC3 (Homo sapiens, UniProt O15379).

Some solved entries appear below for comparison.
Indicate the recorded IC50 value for this compound: CN1CCN(c2cnc(C(=O)Nc3cc(-c4cccs4)ccc3N)nc2)CC1
80 to 90 nM

Indicate the recorded IC50 value for this compound: CC(=O)N1CCN(c2ccc(C(=O)Nc3cc(-c4cccs4)ccc3N)nc2)CC1
120 to 130 nM

Indicate the recorded IC50 value for this compound: COCCOc1ccc(C(=O)Nc2cc(-c3cccs3)ccc2N)nn1
260 to 270 nM

Indicate the recorded IC50 value for this compound: Cc1ccc(-c2ccc(N)c(NC(=O)c3ccc(N4CCNCC4)cn3)c2)cc1
480 to 490 nM

Indicate the recorded IC50 value for this compound: Nc1ccc(-c2ccccc2)cc1NC(=O)c1ncc(N2CCNCC2)cn1
200 to 210 nM

Indicate the recorded IC50 value for this compound: Nc1ccc(-c2cccs2)cc1NC(=O)c1cnc(N2CCNCC2)cn1
30 to 40 nM

Turning now to a further record.
Indicate the recorded IC50 value for this compound: Nc1cc(F)c(-c2cccs2)cc1NC(=O)c1ccc(N2CCNCC2)cn1
200 to 210 nM

* * *

Experiment: PK parameters, IP dosing (plasma and brain exposure)
Assay type: in vivo
Conditions: brain/plasma; Mouse IP; read-out: Brain AUC/Plasma AUC
Reported Kp is given for each of the following compounds.

Indicate the recorded Kp value for this compound: Nc1ccc(-c2ccccc2)cc1NC(=O)c1ncc(N2CCNCC2)cn1 [Compound 009]
0.1 to 1.5

Indicate the recorded Kp value for this compound: Nc1ccc(-c2cccs2)cc1NC(=O)c1ccc(OC[C@H](O)CO)cn1 [Compound 013]
0.01 to 0.1

Indicate the recorded Kp value for this compound: CNS(=O)(=O)Oc1ccc(-c2ccc(N)c(NC(=O)c3ccc(N4CCN(C)CC4)cn3)c2)cc1 [Compound 011]
0.1 to 1.5

Others:
Indicate the recorded Kp value for this compound: Cc1ccc(-c2ccc(N)c(NC(=O)c3ccc(N4CCNCC4)cn3)c2)cc1 [Compound 001]
1 to 5

Indicate the recorded Kp value for this compound: Nc1ccc(-c2ccccc2)cc1NC(=O)c1ccc(N2CCNCC2)nn1 [Compound 003]
1 to 5

Indicate the recorded Kp value for this compound: Nc1ccc(-c2cncs2)cc1NC(=O)c1ccc(N2CCNCC2)cn1 [Compound 012]
0.01 to 0.1

Indicate the recorded Kp value for this compound: COCCOc1ccc(C(=O)Nc2cc(-c3cccs3)ccc2N)nn1 [Compound 008]
0.1 to 1.5

* * *

Experiment: PK parameters, IP dosing (plasma and brain exposure)
Type: in vivo
Set-up: concentration or dose not given beside the values
Settings: Mouse IP, plasma; read-out: AUC(last) Plasma
reported endpoint: AUC(0-t)

Indicate the recorded AUC(0-t) value for this molecule: Nc1ccc(-c2cccs2)cc1NC(=O)c1ncc(N2CCNCC2)cn1
1800 to 1900 ng·h/mL

Indicate the recorded AUC(0-t) value for this molecule: Nc1ccc(-c2cccs2)cc1NC(=O)c1ccc(OCCO)cn1
2300 to 2400 ng·h/mL

* * *

Experiment: PK parameters, IP dosing (plasma and brain exposure)
Assay type: in vivo
Set-up: concentration or dose not given beside the values
Details: Mouse IP, brain; read-out: AUC(last) Brain
Reported AUC(0-t) is given for each of the following compounds.

Some solved entries appear below for comparison.
Indicate the recorded AUC(0-t) value for this compound: Nc1cc(F)c(-c2cccs2)cc1NC(=O)c1ccc(N2CCNCC2)cn1 [Compound 002]
23100 to 23200 ng·h/mL

Indicate the recorded AUC(0-t) value for this compound: CNS(=O)(=O)Oc1ccc(-c2ccc(N)c(NC(=O)c3ccc(N4CCN(C)CC4)cn3)c2)cc1 [Compound 011]
< 100 ng·h/mL

Others:
Indicate the recorded AUC(0-t) value for this compound: Nc1ccc(-c2ccccc2)cc1NC(=O)c1ncc(N2CCNCC2)cn1 [Compound 009]
200 to 300 ng·h/mL

Indicate the recorded AUC(0-t) value for this compound: Nc1ccc(-c2cccs2)cc1NC(=O)c1ccc(OC[C@H](O)CO)cn1 [Compound 013]
300 to 400 ng·h/mL

Indicate the recorded AUC(0-t) value for this compound: Nc1ccc(-c2cccs2)cc1NC(=O)c1cnc(N2CCNCC2)cn1 [Compound 017]
25000 to 25300 ng·h/mL

Indicate the recorded AUC(0-t) value for this compound: COCCOc1ccc(C(=O)Nc2cc(-c3cccs3)ccc2N)nc1 [Compound 004]
2100 to 2200 ng·h/mL

Indicate the recorded AUC(0-t) value for this compound: Nc1ccc(-c2ccoc2)cc1NC(=O)c1ncc(N2CCNCC2)cn1 [Compound 015]
< 100 ng·h/mL

Indicate the recorded AUC(0-t) value for this compound: Nc1ccc(-c2ccccc2)cc1NC(=O)c1ccc(N2CCNCC2)nn1 [Compound 003]
7900 to 8000 ng·h/mL
